# Assay Procedure: amyloid nucleation score (Sup35N fusion, yeast selection) (log enrichment); library NNK2; higher = more nucleation; inactive = no reads after selection;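 note: zero at mode of non-aggregating sequences after 7 days selection at 30°C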
Could you please report measured amyloid nucleation score for the items listed next?
Give the figure only, with no unit attached.

Ask: Given the entry LKAQRFWTNNLSLEANSHRK , report its measured amyloid nucleation score.
Result: -0.573

Ask: Cool, now DTGSGAPVIKYCVAVPRSFT
Result: 0.306

Ask: Cool, now FWGIVKYMWIFSTTYLNVFL
Result: 3.22

Ask: Cool, now DLVSLLSGVFVMFVGLCFEV
Result: -0.733

Ask: Cool, now YFKDLKADVRVKMTKLEWPQ
Result: 2.67

Ask: Cool, now IMWRTERINNYVDSV
Result: -0.846

Ask: Cool, now LWDMIRNGC
Result: -0.769

Ask: Cool, now WMSFTHLLNTIAVMSYLTVL
Result: -0.249

Ask: Cool, now RTDRSYRGLKPVVLVTQWGG
Result: -0.106

Ask: Cool, now DLGAFRLRR
Result: -2.19

Ask: Cool, now KSYMARMWYMVRLMLTCLDY
Result: 0.741

Ask: Cool, now NYRYLLFTSAVDRLQA
Result: -0.117

Ask: Cool, now KLCKVYVRRRSIICWGNCVP
Result: -0.481

Ask: Cool, now GIPCGGMFCRIGS
Result: 0.524

Ask: Cool, now RHSHRARKVGEWGNLCLVEK
Result: 0.26

* * *

Could you please report measured amyloid nucleation score for the items listed next?
# Assay Procedure: amyloid nucleation score (Sup35N fusion, yeast selection) (log enrichment); library NNK2; higher = more nucleation; inactive = no reads after selection
Give the figure only, with no unit attached.

Ask: Given the entry DHRVLQWLTAPY , report its measured amyloid nucleation score.
Result: 0.353

Ask: Cool, now NMMISCVNTLADDVFRGGFV
Result: -1.33

Ask: Cool, now FISTGRRQTFQTRTRSNLWV
Result: 0.195

Ask: Cool, now TLCRAGLNGPWLNVLRFVPR
Result: 0.615

Ask: Cool, now DVLRLTQTANLLCSSALRSA
Result: 1.07

Ask: Cool, now NLRHKDGTGLLRSWMSIQRR
Result: 0.436

Ask: Cool, now EEWTVNCC
Result: 5.77

Ask: Cool, now SVDIHGTFWHILYSIAPDQV
Result: 1.75

* * *

# Assay Procedure: amyloid nucleation score (Sup35N fusion, yeast selection) (log enrichment); library NNK2; higher = more nucleation; inactive = no reads after selection
Hi all, reminder that labels come from amyloid nucleation score, split as range 1: < -0.02; range 2: ≥ -0.02 and < 1; range 3: ≥ 1

Ask: Which bin should I file VGTWATFYVLTCKGEFDPGL under?
Result: range 3

Ask: Cool, now PYRLHMCCWEPLRSMLFMSF
Result: range 3

Ask: Cool, now PVYRACILIDM
Result: range 3

Ask: Cool, now NRRMRKAEPLP
Result: range 2

Ask: Cool, now RHGVMLGAVGVGSNDGSFLS
Result: range 3

Ask: Cool, now TNKYLVGSILYLFKHGWLGV
Result: range 2

Ask: Cool, now SGKTMEVIYNEGSCFCGFLT
Result: range 3

Ask: Cool, now LAHHMF
Result: range 2

Ask: Cool, now SFFFMKSWSGRPPIQLGV
Result: range 1

Ask: Cool, now YHLKYRGSMGVPCLNTFVWN
Result: range 3

Ask: Cool, now LSHLLDGGISLKEGYILWMM
Result: range 1

Ask: Cool, now LYTMNLHYFLLFEESVS
Result: range 1

Ask: Cool, now LHSNCRV
Result: range 2

Ask: Cool, now LSLFVQMMSVGTILLYRMTL
Result: range 2

Ask: Cool, now NISDTSMISNGYCIN
Result: range 2

Ask: Cool, now CHPLEMWFFFSLGGFGVSMT
Result: range 1

Ask: Cool, now WHWISAYCTFICRKVLKEMP
Result: range 2

Ask: Cool, now GIGSQMWFT
Result: range 3

Ask: Cool, now NNMINDGNSMV
Result: range 2

Ask: Cool, now CSDCDSRMC
Result: range 1

Ask: Cool, now RLTSGIW
Result: range 1

Ask: Cool, now CEFMCLQGSRDRIDFLHRSE
Result: range 1

Ask: Cool, now SWVTSYERLRLPLNCMSNDQ
Result: range 1

Ask: Cool, now PPIRVYNLSSTYPMDMSSQR
Result: range 1

Ask: Cool, now FLFNVSGLYIGWSLVPTNLD
Result: range 1

Ask: Cool, now HIKDNQSSSV
Result: range 2

Ask: Cool, now FSVFTD
Result: range 1

Ask: Cool, now TKEFGECFIQMIMYNGRDIL
Result: range 3

Ask: Cool, now MMFNSLCSYWTTDYFATPDL
Result: range 3

Ask: Cool, now WSGDFLRYHCHAGDRCMMTM
Result: range 1

Ask: Cool, now ESTWVCIFSRVLYGGYCGDQ
Result: range 2

Ask: Cool, now HDYGLCTGVDIWITLSCCDR
Result: range 3

Ask: Cool, now WSDLFRRTMCGVW
Result: range 2

Ask: Cool, now KSCGRLAAEYSPPRMACGHD
Result: range 3

Ask: Cool, now KILALATRLKIFSSLVYIRS
Result: range 2

Ask: Cool, now TLTPNNSTCTGVCFCLSYNQ
Result: range 3

Ask: Cool, now TLLTYMVLKCFQFVSEYLWK
Result: range 3

Ask: Cool, now GTVNKSMVTSLTVPLIVC
Result: range 2

Ask: Cool, now EYRLFCCWE
Result: range 3

Ask: Cool, now GEHSGTHNFKCFVSIIRLSR
Result: range 2

Ask: Cool, now RSHVVH
Result: range 3

Ask: Cool, now CFLGHGCILVGYLRDYRLLR
Result: range 2

Ask: Cool, now AADSRYGGNGCFRSMLFALI
Result: range 2

Ask: Cool, now CQMYHKCALVLLAGHQLRRR
Result: range 3

Ask: Cool, now VRATCWS
Result: range 1

Ask: Cool, now YMHCNNCSNVHVWAKKKCRE
Result: range 3

Ask: Cool, now IRSNLTKKHLKIL
Result: range 1

Ask: Cool, now QSYMSGKYVVLVQRGEVFSF
Result: range 1

Ask: Cool, now GDVQLRGMHESPYSPPSQGR
Result: range 1

Ask: Cool, now FYIYGNSCSPYIML
Result: range 1

Ask: Cool, now YLKKVQWYRQAYFGA
Result: range 1

Ask: Cool, now LVKTFYKKWIVREREFWILR
Result: range 1

Ask: Cool, now GSLTDLFGWDESCFRCTALC
Result: range 3

Ask: Cool, now VGYLRELLYAEGT
Result: range 1

Ask: Cool, now NLNSFMVADYLYGDQVQKVF
Result: range 2

Ask: Cool, now QFNFCKLAGQPLMFEFIDGV
Result: range 3

Ask: Cool, now PILLMSTVTRRLVRCNVAFK
Result: range 2

Ask: Cool, now WHMLHRVDKAISFSLSCCGR
Result: range 3

Ask: Cool, now QVSLMKVGWITMTPLGLHSL
Result: range 3

Ask: Cool, now VWLDIYSQLEDENVYSSYLD
Result: range 3

Ask: Cool, now RGIFSSVWLLRSIMFGVGSP
Result: range 2

Ask: Cool, now RSSSVVEARGESST
Result: range 3

Ask: Cool, now GMGIHFKASGRGPLIVGERD
Result: range 2

Ask: Cool, now QWRFGRG
Result: range 3

Ask: Cool, now HLGHKKVRWDMSAELWQ
Result: range 3

Ask: Cool, now LDRDVVYTCVDCVFGVGILK
Result: range 1

Ask: Cool, now DVSLNRGVRPF
Result: range 1
